Reference source: the RNAGym collection of RNA variant scans (doi:10.1073/pnas.2313332121)

Listed here: items and their measured polymerase ribozyme fitness (log ratio).
B1: TPR t1 (parent)
chain: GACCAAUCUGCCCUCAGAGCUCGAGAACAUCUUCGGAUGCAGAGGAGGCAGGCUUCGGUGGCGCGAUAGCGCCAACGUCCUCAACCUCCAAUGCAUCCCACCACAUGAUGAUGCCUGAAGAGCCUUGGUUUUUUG

# Variants of: B1
# assayName: polymerase ribozyme fitness, log enrichment relative to wild type (log ratio); higher = more active; in vitro selection for triplet polymerase activity
measuredEndpoint: polymerase ribozyme fitness (log ratio)

mutantId: C85U C98U
reportedResult: -1.57

mutantId: C3U A50C A74C U96G
reportedResult: -1.84

mutantId: C8U G39U C49G G63A U78A G128A
reportedResult: -3.94

mutantId: A6U U78A C115G U116G
reportedResult: -2.95
